Test: Partition coefficient, log P at 5 mM by reverse phase HPLC analysis
Assay type: physicochemical
Conditions: octanol/water
Hi, to clarify the labels: fulfilled covers logP at 5000 µM from 3 upward, not fulfilled covers anything below 3.

Entry `O=C(COc1ccc(-c2ccc(F)cc2)cc1)Cn1ccc2cc(C(=O)O)ccc21` : is its logP at 5000 µM no less than 3?
fulfilled

Entry `COc1cc(-c2ccccc2)ccc1OCC(=O)Cn1ccc2cc(C(=O)O)ccc21` : is its logP at 5000 µM no less than 3?
not fulfilled

Entry `O=C(COc1ccc(-c2ccccc2)cc1Cl)Cn1ccc2cc(C(=O)O)ccc21` : is its logP at 5000 µM no less than 3?
fulfilled

Entry `CC(C)C(=O)c1cn(CC(=O)COc2ccc(Oc3ccccc3)cc2)c2ccc(C(=O)O)cc12` : is its logP at 5000 µM no less than 3?
fulfilled

Entry `O=C(COc1cccc(-c2ccccc2)c1)Cn1ccc2cc(C(=O)O)ccc21` : is its logP at 5000 µM no less than 3?
fulfilled

Entry `CCCCCCCCc1ccc(OCC(=O)Cn2ccc3cc(C(N)=O)ccc32)cc1` : is its logP at 5000 µM no less than 3?
fulfilled

Entry `CCCCCCOc1ccc(OCC(=O)Cn2ccc3cc(C(=O)O)ccc32)cc1` : is its logP at 5000 µM no less than 3?
fulfilled

Entry `CC(C)(c1ccccc1)c1ccc(OCC(=O)Cn2ccc3cc(C(=O)O)ccc32)cc1` : is its logP at 5000 µM no less than 3?
fulfilled

Entry `COc1ccc2c(c1)c(CC(=O)O)c(C)n2C(=O)c1ccc(Cl)cc1` : is its logP at 5000 µM no less than 3?
not fulfilled

Entry `O=C(COc1ccc(OCCOc2ccccc2)cc1)Cn1ccc2cc(C(=O)O)ccc21` : is its logP at 5000 µM no less than 3?
fulfilled

Entry `CCCCCCCCCCOc1ccc(OCC(=O)Cn2ccc3cc(C(=O)O)ccc32)cc1` : is its logP at 5000 µM no less than 3?
fulfilled

Entry `CC(=O)c1cn(CC(=O)COc2ccc(Oc3ccccc3)cc2)c2ccc(C(=O)O)cc12` : is its logP at 5000 µM no less than 3?
not fulfilled

Entry `CCCCCCCCCOc1ccc(OCC(=O)Cn2ccc3cc(C(=O)O)ccc32)cc1` : is its logP at 5000 µM no less than 3?
fulfilled

Entry `CC(=O)c1cn(CC(=O)COc2ccc(Oc3ccc(C(F)(F)F)cc3)cc2)c2ccc(C(=O)O)cc12` : is its logP at 5000 µM no less than 3?
fulfilled

Entry `O=C(COc1ccc(-c2cccc(F)c2)cc1)Cn1ccc2cc(C(=O)O)ccc21` : is its logP at 5000 µM no less than 3?
fulfilled

Entry `O=C(COc1ccc(-c2cccc(Cl)c2)cc1)Cn1ccc2cc(C(=O)O)ccc21` : is its logP at 5000 µM no less than 3?
fulfilled

Entry `CCCCCCCOc1ccc(OCC(=O)Cn2ccc3cc(C(=O)O)ccc32)cc1` : is its logP at 5000 µM no less than 3?
fulfilled

Entry `O=C(COc1ccc(-c2ccccc2)cc1F)Cn1ccc2cc(C(=O)O)ccc21` : is its logP at 5000 µM no less than 3?
fulfilled

Entry `O=C(COc1ccc(-c2ccc(Cl)cc2)cc1)Cn1ccc2cc(C(=O)O)ccc21` : is its logP at 5000 µM no less than 3?
fulfilled

---

For each entry below, report its solubility thermodynamic value.
Assay: Thermodynamic solubility in sodium phosphate buffer of pH 7.4 by UV-reverse phase HPLC analysis
Type: physicochemical
Dear colleague, please return just the value in µg/mL, with no unit written.

Write down solubility thermodynamic measured for item `O=C(COc1ccc(OCCOc2ccccc2)cc1)Cn1ccc2cc(C(=O)O)ccc21`
31

Write down solubility thermodynamic measured for item `COc1cc(-c2ccccc2)ccc1OCC(=O)Cn1ccc2cc(C(=O)O)ccc21`
6

Write down solubility thermodynamic measured for item `O=C(COc1ccc(-c2ccccc2)cc1)Cn1ccc2cc(C(=O)O)ccc21`
5

Write down solubility thermodynamic measured for item `O=C(COc1ccc(Cc2ccccc2)cc1)Cn1ccc2cc(C(=O)O)ccc21`
18

Write down solubility thermodynamic measured for item `CC(=O)c1cn(CC(=O)COc2ccc(OCCOc3ccccc3)cc2)c2ccc(C(=O)O)cc12`
34

---

Experiment: Drug level in C57Bl6 mouse plasma at 10 mg/kg, iv after 5 mins by UV-reverse phase HPLC analysis
Format: ADME, organism-based
Set-up: dose 10 mg/kg, route intravenous
Details: read-out: Drug uptake
measure name: concentration at 5 min (µg/mL)
Dear colleague, please return just the value in µg/mL, with no unit written.

Write down concentration at 5 min measured for item CC(C)C(=O)c1cn(CC(O)COc2ccc(Oc3ccccc3)cc2)c2ccc(C(=O)O)cc12 (stereo unspecified)
6.2

---

Test: Metabolic stability in rat liver microsomes assessed as compound remaining after 30 mins by HPLC/MS analysis
Assay type: ADME, Microsome
Conditions: read-out: Stability
measure name: remaining at 0.5 h (%)
Dear colleague, please return just the value in %, with no unit written.

Write down remaining at 0.5 h measured for item `CCCCCCOc1ccc(OCC(=O)Cn2ccc3cc(C(=O)O)ccc32)cc1`
38

Write down remaining at 0.5 h measured for item `NC(=O)c1ccc2c(ccn2CC(=O)COc2ccc(-c3ccccc3)cc2)c1`
33

Write down remaining at 0.5 h measured for item `CCCCCCCCCOc1ccc(OCC(=O)Cn2ccc3cc(C(=O)O)ccc32)cc1`
74

Write down remaining at 0.5 h measured for item `CC(=O)c1cn(CC(=O)COc2ccc(OCCOc3ccccc3)cc2)c2ccc(C(=O)O)cc12`
68

Write down remaining at 0.5 h measured for item `O=C(COc1ccccc1-c1ccccc1)Cn1ccc2cc(C(=O)O)ccc21`
81

Write down remaining at 0.5 h measured for item `CC(C)(c1ccccc1)c1ccc(OCC(=O)Cn2ccc3cc(C(=O)O)ccc32)cc1`
0

Write down remaining at 0.5 h measured for item `CCCCCCCCCCOc1ccc(OCC(=O)Cn2ccc3cc(C(=O)O)ccc32)cc1`
67

Write down remaining at 0.5 h measured for item `CC(=O)c1cn(CC(=O)COc2ccc(Oc3ccc(C(F)(F)F)cc3)cc2)c2ccc(C(=O)O)cc12`
73

Write down remaining at 0.5 h measured for item `NC(=O)c1ccc2c(ccn2CC(=O)COc2ccccc2-c2ccccc2)c1`
20

Write down remaining at 0.5 h measured for item `O=C(COc1ccc(-c2cccc(Cl)c2)cc1)Cn1ccc2cc(C(=O)O)ccc21`
31

Write down remaining at 0.5 h measured for item `COc1ccc(-c2ccc(OCC(=O)Cn3ccc4cc(C(=O)O)ccc43)cc2)cc1`
2

Write down remaining at 0.5 h measured for item `O=C(COc1ccc(Oc2ccc(C(F)(F)F)cc2)cc1)Cn1ccc2cc(C(=O)O)ccc21`
57

Write down remaining at 0.5 h measured for item `O=C(COc1ccc(-c2ccccc2)cc1F)Cn1ccc2cc(C(=O)O)ccc21`
16

Write down remaining at 0.5 h measured for item `CC(C)c1ccc(-c2ccc(OCC(=O)Cn3ccc4cc(C(=O)O)ccc43)cc2)cc1`
40

Write down remaining at 0.5 h measured for item `Cc1cc(-c2ccccc2)ccc1OCC(=O)Cn1ccc2cc(C(=O)O)ccc21`
33

Write down remaining at 0.5 h measured for item `CC(=O)c1cn(CC(=O)COc2ccc(Oc3ccccc3)cc2)c2ccc(C(=O)O)cc12`
41

Write down remaining at 0.5 h measured for item `Cc1ccc(-c2ccc(OCC(=O)Cn3ccc4cc(C(=O)O)ccc43)cc2)cc1`
22

Write down remaining at 0.5 h measured for item `O=C(COc1ccc(-c2ccc(Cl)cc2)cc1)Cn1ccc2cc(C(=O)O)ccc21`
46

Write down remaining at 0.5 h measured for item `O=C(COc1ccc(Cc2ccccc2)cc1)Cn1ccc2cc(C(=O)O)ccc21`
7

Write down remaining at 0.5 h measured for item `O=C(COc1ccc(-c2ccccc2)cc1Cl)Cn1ccc2cc(C(=O)O)ccc21`
61

---

Experiment: Drug level in C57Bl6 mouse plasma at 10 mg/kg, po after 2 hrs by UV-reverse phase HPLC analysis
Type: ADME, organism-based
Parameters: dose 10 mg/kg, route oral
Settings: read-out: Drug uptake
measure name: concentration at 2 h (µg/mL)
Dear colleague, please return just the value in µg/mL, with no unit written.

Write down concentration at 2 h measured for item CC(C)C(=O)c1cn(CC(O)COc2ccc(Oc3ccccc3)cc2)c2ccc(C(=O)O)cc12 (stereo unspecified)
34

---

Assay: Drug level in C57Bl6 mouse plasma at 100 mg/kg, po after 2 hrs by UV-reverse phase HPLC analysis
Assay type: ADME, organism-based
Set-up: dose 100 mg/kg, route oral
Conditions: read-out: Drug uptake
measure name: concentration at 2 h (ng/mL)
Dear colleague, please return just the value in ng/mL, with no unit written.

Write down concentration at 2 h measured for item CC(C)C(=O)c1cn(CC(O)COc2ccc(Oc3ccccc3)cc2)c2ccc(C(=O)O)cc12 (stereo unspecified)
300

---

Assay: Drug level in C57Bl6 mouse plasma at 10 mg/kg, po after 1 hr by UV-reverse phase HPLC analysis
Assay type: ADME, organism-based
Design: dose 10 mg/kg, route oral
Settings: read-out: Drug uptake
measure name: concentration at 1 h (ng/mL)
Dear colleague, please return just the value in ng/mL, with no unit written.

Write down concentration at 1 h measured for item CC(C)C(=O)c1cn(CC(O)COc2ccc(Oc3ccccc3)cc2)c2ccc(C(=O)O)cc12 (stereo unspecified)
42000
